Entries and their measured half-life follow.
assay-details: Metabolic stability of test compounds in human liver microsomes
Type: in vitro ADME
cond: human, liver microsomes, pH 7.4, half-life in human liver microsomes, Table 2, Exp B; read-out: T1/2 (min) Exp B
Method: Determination of Metabolic Stability of Test Compounds in Human Liver Microsomes. […] 7.5 mM stock solutions of test compounds were prepared in DMSO. […] Supernatants were transferred to another 96-well plate and analyzed for amounts of parent compound remaining by LC-MS/MS using an Applied Bio-systems API 4000 mass spectrometer. […]
endpoint-name: half-life (min)

CCOC(=O)NCc1coc2ccc(S(=O)(=O)N(CC(C)C)C[C@@H](O)[C@H](Cc3ccccc3)NC(=O)O[C@H]3CO[C@H]4OCC[C@H]43)cc12 [Compound 301, reference compound] | 1.5
[2H]C([2H])(N(C[C@@H](O)[C@H](Cc1ccccc1)NC(=O)O[C@]1([2H])[C@@H]2CCO[C@@H]2OC1([2H])[2H])S(=O)(=O)c1ccc(NC(C)=O)cc1)C1([2H])C([2H])([2H])C([2H])([2H])C([2H])([2H])C1([2H])[2H] [Compound 236] | 3.6
[2H]C([2H])([2H])C([2H])(C([2H])([2H])[2H])C([2H])([2H])N(C[C@@H](O)[C@H](Cc1ccccc1)NC(=O)O[C@]1([2H])[C@@H]2CCO[C@@H]2OC1([2H])[2H])S(=O)(=O)c1ccc(NC(C)=O)cc1 [Compound 227] | 4.3
[2H]C([2H])([2H])C([2H])(C([2H])([2H])[2H])C([2H])([2H])N(C[C@@H](O)[C@H](Cc1ccccc1)NC(=O)O[C@]1([2H])[C@@H]2CCO[C@@H]2OC1([2H])[2H])S(=O)(=O)c1ccc2occ(CNC(=O)OCC)c2c1 [Compound 235] | 1.5
[2H]C([2H])([2H])C([2H])(C([2H])([2H])[2H])C([2H])([2H])N(C[C@@H](O)[C@H](Cc1ccccc1)NC(=O)O[C@]1([2H])[C@@H]2CCO[C@@H]2OC1([2H])[2H])S(=O)(=O)c1ccc(NC(=O)C2CC2)cc1 [Compound 233] | 2.4

---

assay-details: Metabolic stability of test compounds in human liver microsomes
Assay type: in vitro ADME
cond: human, liver microsomes, pH 7.4, half-life in human liver microsomes, Table 4, calculated average of Expt E-J; read-out: T1/2 (min) Average ± SD
Entries and their measured half-life follow.
endpoint-name: half-life (min)

Cc1nc(COc2ccc(C[C@H](NC(=O)O[C@H]3CO[C@H]4OCC[C@H]43)[C@H](O)CN(CC(C)C)S(=O)(=O)c3ccc4c(c3)OCO4)cc2)cs1 [Brecanavir, reference compound] | 2
[2H]C([2H])([2H])C([2H])(C([2H])([2H])[2H])C([2H])([2H])N(C[C@@H](O)[C@H](Cc1ccccc1)NC(=O)O[C@]1([2H])[C@@H]2CCO[C@@H]2OC1([2H])[2H])S(=O)(=O)c1ccc(NC(C)=O)cc1 | 6.3
[2H]C([2H])([2H])C([2H])(C([2H])([2H])[2H])C([2H])([2H])N(C[C@@H](O)[C@H](Cc1ccccc1)NC(=O)O[C@]1([2H])[C@@H]2CCO[C@@H]2OC1([2H])[2H])S(=O)(=O)c1ccc2occc2c1 | 23
CC(C)CN(C[C@@H](O)[C@H](Cc1ccccc1)NC(=O)O[C@H]1CO[C@H]2OCC[C@H]21)S(=O)(=O)c1ccc2ncsc2c1 [Compound 302, reference compound] | 6
[2H]C([2H])([2H])C([2H])(C([2H])([2H])[2H])C([2H])([2H])N(C[C@@H](O)[C@H](Cc1ccccc1)NC(=O)O[C@]1([2H])[C@@H]2CCO[C@@H]2OC1([2H])[2H])S(=O)(=O)c1ccc2ncsc2c1 | 6.2
CC(C)CN(C[C@@H](O)[C@H](Cc1ccccc1)NC(=O)O[C@H]1CO[C@H]2OCC[C@H]21)S(=O)(=O)c1ccc2occc2c1 [Compound 303, reference compound] | 20.5

---

assay-details: Metabolic stability of test compounds in human liver microsomes
Format: in vitro ADME
cond: human, liver microsomes, pH 7.4, half-life in human liver microsomes, Table 4, Expt E; read-out: T1/2 (min) Expt E
endpoint-name: half-life

[2H]C([2H])([2H])C([2H])(C([2H])([2H])[2H])C([2H])([2H])N(C[C@@H](O)[C@H](Cc1ccccc1)NC(=O)O[C@]1([2H])[C@@H]2CCO[C@@H]2OC1([2H])[2H])S(=O)(=O)c1ccc2occc2c1 [Compound 106] | 31.2 min

---

assay-details: Metabolic stability of test compounds in human liver microsomes
Format: in vitro ADME
cond: human, liver microsomes, pH 7.4, half-life in human liver microsomes, Table 4, Expt I; read-out: T1/2 (min) Expt I
endpoint-name: log10(half-life) (log10 of the value in min)

Cc1nc(COc2ccc(C[C@H](NC(=O)O[C@H]3CO[C@H]4OCC[C@H]43)[C@H](O)CN(CC(C)C)S(=O)(=O)c3ccc4c(c3)OCO4)cc2)cs1 [Brecanavir, reference compound] | 0.30
[2H]C([2H])([2H])C([2H])(C([2H])([2H])[2H])C([2H])([2H])N(C[C@@H](O)[C@H](Cc1ccccc1)NC(=O)O[C@]1([2H])[C@@H]2CCO[C@@H]2OC1([2H])[2H])S(=O)(=O)c1ccc2occc2c1 | 1.33
[2H]C([2H])([2H])C([2H])(C([2H])([2H])[2H])C([2H])([2H])N(C[C@@H](O)[C@H](Cc1ccccc1)NC(=O)O[C@]1([2H])[C@@H]2CCO[C@@H]2OC1([2H])[2H])S(=O)(=O)c1ccc(NC(C)=O)cc1 | 0.86
CC(C)CN(C[C@@H](O)[C@H](Cc1ccccc1)NC(=O)O[C@H]1CO[C@H]2OCC[C@H]21)S(=O)(=O)c1ccc2ncsc2c1 [Compound 302, reference compound] | 0.75
[2H]C([2H])([2H])C([2H])(C([2H])([2H])[2H])C([2H])([2H])N(C[C@@H](O)[C@H](Cc1ccccc1)NC(=O)O[C@]1([2H])[C@@H]2CCO[C@@H]2OC1([2H])[2H])S(=O)(=O)c1ccc2ncsc2c1 | 0.78
CC(C)CN(C[C@@H](O)[C@H](Cc1ccccc1)NC(=O)O[C@H]1CO[C@H]2OCC[C@H]21)S(=O)(=O)c1ccc2occc2c1 [Compound 303, reference compound] | 1.32

---

Entries and their measured half-life follow.
assay-details: Metabolic stability of test compounds in human liver microsomes
Format: in vitro ADME
cond: human, liver microsomes, pH 7.4, half-life in human liver microsomes, Table 2, calculated average of Exp A and B; read-out: T1/2 (min) Average
endpoint-name: half-life

CCOC(=O)NCc1coc2ccc(S(=O)(=O)N(CC(C)C)C[C@@H](O)[C@H](Cc3ccccc3)NC(=O)O[C@H]3CO[C@H]4OCC[C@H]43)cc12 [Compound 301, reference compound] | 1.7 min
[2H]C([2H])([2H])C([2H])(C([2H])([2H])[2H])C([2H])([2H])N(C[C@@H](O)[C@H](Cc1ccccc1)NC(=O)O[C@]1([2H])[C@@H]2CCO[C@@H]2OC1([2H])[2H])S(=O)(=O)c1ccc2occ(CNC(=O)OCC)c2c1 | 2 min
[2H]C([2H])([2H])C([2H])(C([2H])([2H])[2H])C([2H])([2H])N(C[C@@H](O)[C@H](Cc1ccccc1)NC(=O)O[C@]1([2H])[C@@H]2CCO[C@@H]2OC1([2H])[2H])S(=O)(=O)c1ccc(NC(C)=O)cc1 | 6.6 min

---

Entries and their measured half-life follow.
assay-details: Metabolic stability of test compounds in human liver microsomes
Assay type: in vitro ADME
cond: human, liver microsomes, pH 7.4, half-life in human liver microsomes, Table 2, Exp A; read-out: T1/2 (min) Exp A
endpoint-name: half-life (min)

[2H]C([2H])([2H])C([2H])(C([2H])([2H])[2H])C([2H])([2H])N(C[C@@H](O)[C@H](Cc1ccccc1)NC(=O)O[C@]1([2H])[C@@H]2CCO[C@@H]2OC1([2H])[2H])S(=O)(=O)c1ccc2occ(CNC(=O)OCC)c2c1 | 2.4
[2H]C([2H])([2H])C([2H])(C([2H])([2H])[2H])C([2H])([2H])N(C[C@@H](O)[C@H](Cc1ccccc1)NC(=O)O[C@]1([2H])[C@@H]2CCO[C@@H]2OC1([2H])[2H])S(=O)(=O)c1ccc(NC(=O)C2CC2)cc1 | 4.7
[2H]C([2H])(N(C[C@@H](O)[C@H](Cc1ccccc1)NC(=O)O[C@]1([2H])[C@@H]2CCO[C@@H]2OC1([2H])[2H])S(=O)(=O)c1ccc(NC(C)=O)cc1)C1([2H])C([2H])([2H])C([2H])([2H])C([2H])([2H])C1([2H])[2H] | 7.1
CCOC(=O)NCc1coc2ccc(S(=O)(=O)N(CC(C)C)C[C@@H](O)[C@H](Cc3ccccc3)NC(=O)O[C@H]3CO[C@H]4OCC[C@H]43)cc12 [Compound 301, reference compound] | 1.9
[2H]C([2H])([2H])C([2H])(C([2H])([2H])[2H])C([2H])([2H])N(C[C@@H](O)[C@H](Cc1ccccc1)NC(=O)O[C@]1([2H])[C@@H]2CCO[C@@H]2OC1([2H])[2H])S(=O)(=O)c1ccc(NC(C)=O)cc1 | 9
